Sourced from ChEMBL document CHEMBL3396991

# Ratio Ki annotations
assay: Selectivity ratio of Ki for human recombinant mu opioid receptor to Ki for rat recombinant kappa opioid receptor
reportedProperty: Ratio Ki

>>> numericvalue("CC(C)[C@@H](CN1CC[C@@](C)(c2cccc(O)c2)[C@@H](C)C1)NC(=O)[C@H]1Cc2ccc(OCCF)cc2CN1")
2.6
>>> numericvalue("CC(C)[C@@H](CN1CC[C@@](C)(c2cccc(O)c2)[C@@H](C)C1)NC(=O)[C@H]1Cc2ccc(O)cc2CN1CCF")
2.4
>>> numericvalue("CC(C)[C@@H](CN1CC[C@@](C)(c2cccc(O)c2)[C@@H](C)C1)NC(=O)[C@H]1Cc2ccc(OCCCF)cc2CN1")
7
>>> numericvalue("CC(C)[C@@H](CN1CC[C@@](C)(c2cccc(O)c2)[C@@H](C)C1)NC(=O)[C@H]1Cc2ccc(O)cc2CN1CCCF")
12.2
